# tested_system: T1, Human CD137 ECD (human)
# T1 construct: also called 4-1BB
# T1 sequence (chain, as listed by the source limits assumed): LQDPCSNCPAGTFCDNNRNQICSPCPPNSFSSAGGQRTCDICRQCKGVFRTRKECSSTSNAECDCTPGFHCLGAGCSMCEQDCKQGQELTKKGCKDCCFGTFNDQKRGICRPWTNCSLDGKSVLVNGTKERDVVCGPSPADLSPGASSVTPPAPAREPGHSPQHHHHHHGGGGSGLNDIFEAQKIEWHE
# protocol_description: single mutant vs template dBBDu183H
Please go through the items and note down their fold change of affinity.
Your answer is read as fold, so omit the unit and give the number.

Task: // lookup fold change of affinity for H183/L072 VH T28R (antibody, name in Kabat numbering, V domains shown) VH: QVQLVESGGGLVQPGRSLRLSCAASGFRFSNAWMHWVRQAPGKGLEWVAQIKDKGNAYAAYYAPSVKGRFTISRDDSKNSIYLQMNSLKTEDTAVYYCHYVHYASASTVLPAFGVDAWGQGTTVTVSS VL: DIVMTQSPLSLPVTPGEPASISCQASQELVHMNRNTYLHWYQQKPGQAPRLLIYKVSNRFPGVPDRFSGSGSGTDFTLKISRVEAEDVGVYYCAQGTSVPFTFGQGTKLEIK
Output: 1.5

Task: // lookup fold change of affinity for H183/L072 VH A54I (antibody, name in Kabat numbering, V domains shown) VH: QVQLVESGGGLVQPGRSLRLSCAASGFTFSNAWMHWVRQAPGKGLEWVAQIKDKGNIYAAYYAPSVKGRFTISRDDSKNSIYLQMNSLKTEDTAVYYCHYVHYASASTVLPAFGVDAWGQGTTVTVSS VL: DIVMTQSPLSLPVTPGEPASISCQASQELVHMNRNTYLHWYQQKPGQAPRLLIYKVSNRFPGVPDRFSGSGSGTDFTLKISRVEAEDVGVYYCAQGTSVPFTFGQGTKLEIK
Output: 0.5

Task: // lookup fold change of affinity for H183/L072 VH N31Q (antibody, name in Kabat numbering, V domains shown) VH: QVQLVESGGGLVQPGRSLRLSCAASGFTFSQAWMHWVRQAPGKGLEWVAQIKDKGNAYAAYYAPSVKGRFTISRDDSKNSIYLQMNSLKTEDTAVYYCHYVHYASASTVLPAFGVDAWGQGTTVTVSS VL: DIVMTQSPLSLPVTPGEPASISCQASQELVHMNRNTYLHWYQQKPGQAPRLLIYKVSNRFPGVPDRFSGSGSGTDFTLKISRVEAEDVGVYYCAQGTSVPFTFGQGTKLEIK
Output: 0.2

Task: // lookup fold change of affinity for H183/L072 VH Q50K (antibody, name in Kabat numbering, V domains shown) VH: QVQLVESGGGLVQPGRSLRLSCAASGFTFSNAWMHWVRQAPGKGLEWVAKIKDKGNAYAAYYAPSVKGRFTISRDDSKNSIYLQMNSLKTEDTAVYYCHYVHYASASTVLPAFGVDAWGQGTTVTVSS VL: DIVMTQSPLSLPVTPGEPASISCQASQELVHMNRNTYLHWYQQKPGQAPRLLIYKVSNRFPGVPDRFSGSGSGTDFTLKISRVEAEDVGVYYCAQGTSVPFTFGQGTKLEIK
Output: 0.8

Task: // lookup fold change of affinity for H183/L072 VH V63L (antibody, name in Kabat numbering, V domains shown) VH: QVQLVESGGGLVQPGRSLRLSCAASGFTFSNAWMHWVRQAPGKGLEWVAQIKDKGNAYAAYYAPSLKGRFTISRDDSKNSIYLQMNSLKTEDTAVYYCHYVHYASASTVLPAFGVDAWGQGTTVTVSS VL: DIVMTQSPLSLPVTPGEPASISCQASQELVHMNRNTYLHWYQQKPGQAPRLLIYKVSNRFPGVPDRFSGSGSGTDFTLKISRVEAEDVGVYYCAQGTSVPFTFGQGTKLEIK
Output: 0.9
